# Experimental protocol: yeast display, Sf9 membrane polyspecificity reagent, FACS + sequencing; frameworks hold sequencing errors
Observation type: polyreactivity (PSR sort gate)

Sequence entry | polyreactivity (PSR sort gate)
QVQLVESGGALVQAGGSLRLSCAASGSTFVQNAMGWYRQAPGKDRELVAAITIGGGSTYYADSVKGRFTISRDNAKNTVYLQMNSLKPEDTAVYYCAVEVGNPQLAYSYDYWGQGTQVTVSS | low polyreactivity
QVQLVESGGGLVQAGGSLRLSCAASGRTSVYNAMGWYRPAPGKERELVAAIRGGGGNTYYADSVKGRFTISRDNAKNTVYLQMNSLKPADTAVYYCAKGSVVYLLRGVKGHSMDYWGQGTQVTVSS | low polyreactivity
QVQLVESGGGLVQAGGSLRLSCAASGSTFDAYDMGWYRQAPGTERELVADINWSGGITYYADSVKGRFRISRDNAKNTVYLQMNSLKPEDTAVYYCNADASFYSRVNYWGQGTQVTVSS | high polyreactivity
QVQLVESGGGLVQAGGSLRLSCAATGSIFNVNAMGWYRQAPGKERELVAAISSGGDTYYADSVKGRFTISRDNAKNTVYIQMNSLQPEDTAVYYCAKQSYTLYTLLYDYWGQGTQVTVSS | low polyreactivity

Value lookup for polyreactivity (PSR sort gate); key = `QVQLVESGGGLVQAGGILRLSCAASGFIFNRYAMGWSRQSPGKARELVADITGGSTYYADSVKGRFTISRDNAKNTVYLQMNSLKPEDTAVYYCAAYVWRYWHEYDYWGQGTQVTVSS`
low polyreactivity

Lookup `QVQLVESGGGLVQAGGSLRLSCAASGSIFYVNAMGWYRQAPGKERELVASITASGGTTYYADSVKGRFTISRDNAKNNVYLQMNSLKPEDTAVYYCAATFIQVVVNVQLYDYDYWGQGTQVTVSS`
low polyreactivity

Lookup `QVQLVESGGGLVLAGGSLRLSCAASGRIFLRNAMGWYRQAPGKVRELVATITSRGGSTYYADSVKGRFTISRDKAKNTVYLQMNSLKPEDTAVYYCAADPRRYRGFGYVYGGFYYWGQGTQVTVSS`
low polyreactivity

Lookup `QVQLVESGGGLVQAGGSLLLICAASGRTFPYNAMGWYRQAPGKEREFVAAISVGGGSTYADSVKGRFTISRDNAKNTVYLQMNSLKPEDTAVYYCAAAYTKLYYYWGQGTQVTVSS`
low polyreactivity

Lookup `QDQLVESGGCLVQAGGSLRLSCAASGSTFGYNVMGRYRQAPGKERELVAAISSSGGSTYYADSVKGRFSISRDNAKNTVYLQMNSLKPEDTAVYYCARSTYPYRYGYWGQGTQVTVSS`
high polyreactivity

Lookup `QVQLVESGGGLVQAGGSLRLSCAASGFIIKFYAMGWYRQAPGKERELVATITISSGTTYYADSVKGRFTISRDTAKNTVYLQMNSLKPEDTAVYYCAASTLPAWPYDGPAGPRYDYWGQGTQVTVSS`
low polyreactivity

Lookup `QVQLVESGGGLVQAGGSLRLSCAASGRTFAYYAMGWYRQAPGKERELVAAISGNGGRTYYADSVKGRFTISRDNAKNTVYLQMNSLKPEDTAVYYCNAAVGYYSYSYYTKVGVDYWGQGSQVTVSS`
high polyreactivity

Lookup `QVQLVESGGGLVQAGGSLRLSCAASGSISLLYAMGWYRQAPGKDRELVAAISSGTDDTYYADSVKGRFTISRDNAKNTVYLQMNSLKPEDTAVYYCAADPLFKDDLWPVRVRVDYWGQGTQVTVSS`
low polyreactivity
